Hi there, I'd appreciate the recorded Ki for every entry that follows.
target: Neuronal acetylcholine receptor subunit alpha-7 (Homo sapiens); assay: Displacement of [3H]MLA from nAChR alpha7 receptor in human SH-SY5Y cells by scintillation counting
Sequence (P36544 whole entry): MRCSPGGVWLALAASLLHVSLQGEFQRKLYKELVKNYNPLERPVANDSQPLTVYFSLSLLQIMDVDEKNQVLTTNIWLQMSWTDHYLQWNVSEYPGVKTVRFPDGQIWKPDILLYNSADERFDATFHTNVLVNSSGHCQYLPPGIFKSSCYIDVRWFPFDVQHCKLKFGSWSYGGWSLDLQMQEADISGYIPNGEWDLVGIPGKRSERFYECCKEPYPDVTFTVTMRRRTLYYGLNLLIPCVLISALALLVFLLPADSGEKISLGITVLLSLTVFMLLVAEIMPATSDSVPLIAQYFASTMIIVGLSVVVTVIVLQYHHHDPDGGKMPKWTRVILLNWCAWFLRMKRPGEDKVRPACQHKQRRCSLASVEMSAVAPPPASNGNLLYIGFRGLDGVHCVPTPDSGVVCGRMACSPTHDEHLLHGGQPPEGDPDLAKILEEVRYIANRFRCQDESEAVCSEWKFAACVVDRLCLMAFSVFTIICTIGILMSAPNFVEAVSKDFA
Give bare numbers, in µM.

{"COMPOUND": "O=C(O[C@H]1C[C@H]2CC[C@@H](C1)N2CC(O)c1ccccc1)c1ccccc1 (mixture of isomers)", "VALUE_UNITS": "µM", "Ki": 12.6}
{"COMPOUND": "CN1[C@@H](CC(=O)c2ccccc2)CCC[C@H]1C[C@H](O)c1ccccc1", "VALUE_UNITS": "µM", "Ki": 7.94}
{"COMPOUND": "O=C(O[C@@H]1C[C@H]2CC[C@@H](C1)N2CCc1ccccc1)c1ccccc1", "VALUE_UNITS": "µM", "Ki": 5.01}

# input for lookup
Field Ki (entry O=C(O[C@H]1C[C@H]2CC[C@@H](C1)N2CC(O)c1cc(O)cc(O)c1)c1ccccc1 (some centres undefined) ) reads 15.8
